Measured IC50 by item
TARGET: human metabotropic glutamate receptor 1a (mGluR1a) (Homo sapiens, UniProt Q13255)
Sequence (Q13255 19-1194): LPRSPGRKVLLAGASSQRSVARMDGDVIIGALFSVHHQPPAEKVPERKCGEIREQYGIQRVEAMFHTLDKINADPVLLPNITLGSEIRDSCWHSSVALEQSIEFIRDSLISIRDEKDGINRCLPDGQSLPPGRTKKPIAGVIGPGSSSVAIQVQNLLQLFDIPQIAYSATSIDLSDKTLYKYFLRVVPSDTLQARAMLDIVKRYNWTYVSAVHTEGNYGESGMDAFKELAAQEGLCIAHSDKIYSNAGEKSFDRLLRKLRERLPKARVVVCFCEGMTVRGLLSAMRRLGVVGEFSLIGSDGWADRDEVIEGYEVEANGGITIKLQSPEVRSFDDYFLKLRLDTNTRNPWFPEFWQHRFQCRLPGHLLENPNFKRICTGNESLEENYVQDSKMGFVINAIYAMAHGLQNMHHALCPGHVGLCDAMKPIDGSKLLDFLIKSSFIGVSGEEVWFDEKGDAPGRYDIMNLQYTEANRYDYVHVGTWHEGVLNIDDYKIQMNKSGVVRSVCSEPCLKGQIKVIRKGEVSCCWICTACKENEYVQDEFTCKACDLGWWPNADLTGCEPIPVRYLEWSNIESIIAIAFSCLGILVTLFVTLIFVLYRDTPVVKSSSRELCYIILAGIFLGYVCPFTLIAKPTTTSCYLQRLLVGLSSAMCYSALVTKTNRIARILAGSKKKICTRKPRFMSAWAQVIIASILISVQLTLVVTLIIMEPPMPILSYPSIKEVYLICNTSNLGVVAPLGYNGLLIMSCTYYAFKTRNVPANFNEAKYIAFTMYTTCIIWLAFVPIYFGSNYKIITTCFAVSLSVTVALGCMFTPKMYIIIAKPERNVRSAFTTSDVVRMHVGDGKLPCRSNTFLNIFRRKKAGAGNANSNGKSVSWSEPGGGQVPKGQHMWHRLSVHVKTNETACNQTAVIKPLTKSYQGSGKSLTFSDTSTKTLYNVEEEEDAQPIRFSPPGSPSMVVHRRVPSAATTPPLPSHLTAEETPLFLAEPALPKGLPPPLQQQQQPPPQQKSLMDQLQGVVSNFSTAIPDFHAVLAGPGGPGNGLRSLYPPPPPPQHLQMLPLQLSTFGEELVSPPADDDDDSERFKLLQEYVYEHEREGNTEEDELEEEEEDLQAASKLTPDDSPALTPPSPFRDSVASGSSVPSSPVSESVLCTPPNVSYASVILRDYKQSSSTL
ASSAY PROTOCOL: mGluR1 inhibiting effect: intracellular calcium concentration (FLIPR) in mGluR1a-expressing CHO cells
TEST SETTINGS: suppression of calcium increase by 10 μM glutamic acid, test compound added 5 min before agonist
Answer with the figure and its unit, nothing else.

Past entries and their recorded results:
Cc1c(-c2ccc3c(c2)CN(C(C)C)C3=O)nnn1-c1ccc(F)cc1F
4.3 nM
Cc1c(-c2ccc3c(c2)CN(C2CC2)C3=O)nnn1-c1cccnc1F
3.2 nM
Cc1c(-c2ccc3c(c2)CN(CC(F)F)C3=O)nnn1-c1ccc(F)cc1
2.5 nM

Write down measured IC50 (human metabotropic glutamate receptor 1a (mGluR1a) (Homo sapiens, UniProt Q13255)) for this molecule. `Cc1c(-c2ccc3c(=O)n(CC(C)(C)O)ccc3c2)nnn1-c1ccc(F)cc1`
3.4 nM

Look up and report measured IC50 (human metabotropic glutamate receptor 1a (mGluR1a) (Homo sapiens, UniProt Q13255)) for the following molecule: `Cc1c(-c2ccc3c(c2)CN(C(C)C)C3=O)nnn1-c1cccnc1F`
6.5 nM

Give reported IC50 for `CCCN1Cc2cc(-c3nnn(-c4cccnc4F)c3C)ccc2C1=O` (human metabotropic glutamate receptor 1a (mGluR1a) (Homo sapiens, UniProt Q13255))
4.4 nM

Attribution: patent US7902369B2
